Test system: Plasmodium berghei
Assay: Screen against P. berghei liver stage (PbLuc), transformed with Luciferase, at 10uM
Type: functional, HepG2
Settings: tested at 10 uM
Screen size: about 69,000 compounds; about 8,600 (12%) showed an effect of 50% or more. The sample as a whole holds a higher share of strong results than the screen did.
readout name: INHIBITION (%)
Use % as the unit, but write only the number.

Cc1cc(C)nc(CN2CCOC(c3ccc(Cl)cc3)C2)n1 (configuration not stated) ... 41.5
COc1ccc2c(c1)NC(C1CCNCC1)NS2(=O)=O (configuration not stated) ... 19.3

Quick one: INHIBITION for O=C(c1ccccn1)N1CCC(S(=O)(=O)c2ccccc2)C1 (configuration not stated) ?
45.5

Which INHIBITION is listed for CC(NC(=O)CCn1cccn1)c1ccc2c(c1)OCCO2 (configuration not stated) ?
22.3

Given CC(NC(=O)NCCCO)c1ccc2c(c1)NC(=O)CO2 (configuration not stated) , state its recorded INHIBITION.
-11.4

Request the reported INHIBITION associated with CC(NC(=O)Cn1cccn1)c1ccc2c(c1)OCCCO2 (configuration not stated)
62.1

Form field: reported INHIBITION of O=C(c1ccc(O)cn1)N1CCOC(c2ccc(Cl)c(Cl)c2)C1 (configuration not stated)
-19.2

// query INHIBITION value for entry O=C(CCC1CCCO1)NS(=O)(=O)c1ccc(Cl)cc1 (configuration not stated)
-11.4

Give the measured INHIBITION of Cc1c[nH]c(CN2CCOC(c3ccc(F)cc3)C2)c(C)c1=O (configuration not stated) .
-3.96

Reported INHIBITION, compound Cc1nc[nH]c1CN1CCOC(c2ccc(Cl)c(Cl)c2)C1 (configuration not stated) : ____
69.4

Entry under review: CCC(=O)N1CCC1c1cc(NC2CCCC2)nc(C)n1 (configuration not stated) . Reported INHIBITION?
14.5

Suppose we examine the compound CC(NC(=O)NCCCO)c1ccc2c(c1)OCCO2 (configuration not stated) ; what INHIBITION value has been reported?
52.1

---

# maps each entry to its INHIBITION
System: Plasmodium berghei
Test: Screen against P. berghei liver stage (PbLuc), transformed with Luciferase, at 10uM
Assay type: functional, HepG2
Settings: tested at 10 uM
The whole screen tested about 69,000 compounds, of which about 8,600 (12%) showed an effect of 50% or more. This is one part of a sample in which strong results are shown more often than they occur.
Report as a plain number; the unit % is understood.

Use the examples below as a reference point.
Cc1ccc(CCCC(=O)N2CCN(C3CCCN(C)C3)CC2)s1 (centres undefined) ... 15.7
COc1cccc(CC2(CO)CCCN(c3nccs3)C2)c1 (centres undefined) ... 3.46
COc1ccc(C(=O)NS(=O)(=O)c2cc(Cl)sc2Cl)cc1OC(F)F ... 27.7

What value of measured INHIBITION is listed for Cc1cnc(C)c(N2CCCC(C/C=C/c3ccccc3)(C(=O)O)C2)n1 (centres undefined) ?
27.9

Endpoint output: INHIBITION of COc1cc(C(=O)Nc2nc(C)no2)cc(OC)c1Br . Value?
91.4

Reported INHIBITION for O=C(c1ccc(Cn2cnnn2)cc1)N1CCC(c2ccncc2)CC1 : what is it?
-23

Any idea what its INHIBITION is? The compound is Cc1ncccc1C(=O)NCc1ccccc1CN(C)Cc1ccco1
67.3

Field request: INHIBITION | item: CC(C)OCc1ccc(CNc2cncc(-n3cccn3)n2)cc1
80.6

---

Test system: Plasmodium berghei
Assay: Screen against P. berghei liver stage (PbLuc), transformed with Luciferase, at 10uM
Assay type: functional, HepG2
Details: tested at 10 uM
Among all 69,000 compounds or so, about 8,600 (12%) showed an effect of 50% or more. This excerpt belongs to a sample that is enriched for strong results.
For each record, check the reported INHIBITION: if it is below 40% write TRUE, else write FALSE.

Check out these entries, answers already filled in.
Cc1cc(C)n(CC2CN(Cc3ccc(C(N)=O)cc3)CCO2)n1 (centres undefined) ... FALSE
COc1ccc(NC(=O)Nc2cnc(N3CCN(C)CC3)nc2)cc1Cl ... FALSE
Cc1ccc(N2CCN(C(=O)CN3C[C@H]4CC[C@@H]3C4)CC2=O)cc1 ... TRUE
COc1ccc(C)cc1NC(=O)Nc1cnc(N2CCCC2)nc1 ... FALSE
CN(Cc1nc(N)nc(N(C)C)n1)Cc1cccc2ccccc12 ... TRUE
CN(CCOc1ccc(C#N)cc1)CC1CC1 ... TRUE

Is INHIBITION of COc1cc(C)ccc1OCCC(=O)N1CCC(C(N)=O)C1 (centres undefined) strictly below 40%?
TRUE

Hi there! Is INHIBITION for Cc1ccc(N2CC[C@H](O)[C@@H]2Cc2cnn(C)c2)nn1 below 40%, do you know?
TRUE

---

Tested on: Plasmodium berghei
Experiment: Screen against P. berghei liver stage (PbLuc), transformed with Luciferase, at 10uM
Assay type: functional, HepG2
Settings: tested at 10 uM
In all, about 69,000 compounds went through this assay and about 8,600 (12%) showed an effect of 50% or more. What follows is part of a selection rich in strong results, with near analogues and random picks from the rest.
// reported INHIBITION per item
Answer format: value, then unit.

Answered cases to consult:
CC(C)C1CCN(C(=O)NCC(=O)N(C)CC(F)(F)F)CC1 ... 34.2%
Cn1ccnc1CN1CCCC1c1noc(C2CC2)n1 (configuration not stated) ... 7.64%
CCN(CC)C(=O)[C@@H]1C[C@@H](NC(=O)c2ccn(C(C)(C)C)c2)CN1C ... 51.3%
Cc1cc(CN2CCCC2c2noc(C3CC3)n2)c2ccccc2n1 (configuration not stated) ... 64.5%
CNC(=O)C1CN(C(=O)c2cccnc2)CCN(S(C)(=O)=O)C1 (configuration not stated) ... 9.25%

Data request, read-out INHIBITION, for COc1cccc2ccc(CN3CCN(c4ncccc4C)CC3)nc12
61.1%

Which INHIBITION reading was recorded for the compound CC(NC(=O)NCc1cccnc1N(C)C)c1cccs1 (configuration not stated) ?
37.9%

Any idea what its INHIBITION is? The compound is Cc1c(Br)cccc1C(=O)NCC1CCCNC1 (configuration not stated)
42.3%

// query INHIBITION value for entry CCN(CC)C(=O)[C@@H]1C[C@@H](NC(=O)c2ccoc2)CN1C
6.88%

Please report the recorded INHIBITION for Cn1ccc(C(=O)NC2CCC23CCN(CC2CCOCC2)CC3)c1 (configuration not stated) .
12%

Need INHIBITION of Clc1ccccc1CN1CCc2nc(C3CCNCC3)ncc2C1 , thanks.
23.2%

Need INHIBITION of Cc1noc(-c2ccc(N3CCC[C@H]3CO)nc2)n1 , thanks.
17.6%

Would you mind telling me what INHIBITION value was observed for CC(=O)N1CCC2(CCCN(S(=O)(=O)c3ccc(F)cc3)C2)C1 (configuration not stated) ?
-4.82%

INHIBITION lookup needed for O=C(c1ccncn1)N1CCC[C@]2(C[C@@H](OCc3ccccn3)CO2)C1 , thanks.
43.9%

Give its INHIBITION value. Item: CS(=O)(=O)c1ccc(-c2cnc(C3CCCN3)cn2)cc1 (configuration not stated)
45.95%

Bench note: what INHIBITION did CC(NC(=O)C1=NN(C)C(=O)CC1)c1ccccc1Cl (configuration not stated) show?
35.4%

---

Listing: INHIBITION of selected compounds
System: Plasmodium berghei
Test: Screen against P. berghei liver stage (PbLuc), transformed with Luciferase, at 10uM
Assay type: functional, HepG2
Conditions: tested at 10 uM
The whole screen tested about 69,000 compounds, of which about 8,600 (12%) showed an effect of 50% or more. This is one part of a sample in which strong results are shown more often than they occur.
Kindly write the number and append the unit.

Known INHIBITION results, listed for orientation:
COCCNC(=O)Cn1ccc2ccc(F)cc21 ... 17.1%
CC(C)NC(=O)c1cc2c([nH]c1=O)CC(c1cccs1)CC2=O (centres undefined) ... 62.3%
CC(C)c1ncc2c(n1)CN(Cc1nc3c(F)cccc3[nH]1)CC2 ... 36.6%
CC(C)c1nc(CN2CCOC(Cn3cccn3)C2)no1 (centres undefined) ... -38.7%
O=C1CC(c2cccs2)Cc2[nH]c(=O)ccc21 (centres undefined) ... -32.1%

Data request, read-out INHIBITION, for O=C(CCn1ccc2cc(Br)ccc21)NC[C@@H]1CCCN2CCCC[C@H]12
49%

Param item = CCCNC(=O)c1cc2c([nH]c1=O)CC(c1cccs1)CC2=O (centres undefined) ; retrieve measured INHIBITION.
41.8%

For the compound shown here, CC(C)CC(=O)N1CCN(C(=O)NC(C)C)CC2(CC(=O)N(C)C2)C1 (centres undefined) , give the reported INHIBITION.
34.4%

Reported INHIBITION, compound c1ccc(-c2nc(CNC3CCCN(c4cccnn4)C3)no2)cc1 (centres undefined) : ____
48.4%

I would be grateful if you could share the reported INHIBITION for CCc1nnc2n1CCN(Cc1ccc3c(c1)OCCO3)C2 .
18.9%

State the recorded INHIBITION for this entry: CNC(=O)c1sc2ccccc2c1CC1CCCN1Cc1cnc(C)s1 (centres undefined)
24.69%

So what's the measured INHIBITION for this one? NS(=O)(=O)c1cc(C(=O)N2CCCC(n3ccnc3)C2)cs1 (centres undefined)
29.4%

Recorded INHIBITION for O=S(=O)(Cc1ccccc1Cl)CC(O)CO (centres undefined) , please?
27%

Which INHIBITION is reported for this compound? CNc1ncc(CN(C)C(=O)[C@@]23CNC[C@@H]2CN(C(=O)C2CC2)C3)cn1
-149%

Which INHIBITION reading was recorded for the compound CC(C)c1ncc(Cl)c(C(=O)N2CCN(C3CC3)CC2)n1 ?
40.7%

I have this compound here, CN1CCC(C(=O)NCCC2CN(c3cnn(C)c(=O)c3)CCO2)CC1 (centres undefined) , and I need its recorded INHIBITION.
23.6%

INHIBITION lookup needed for O=C1NCC2=Nc3ccccc3NC(c3ccc(O)cc3)C12 (centres undefined) , thanks.
-72.4%

For the compound CN(Cc1noc(C(C)(C)C)n1)C1CCCN(c2cccnn2)C1 (centres undefined) , what INHIBITION is on record?
66.2%

Tell me the measured INHIBITION of Cc1c[nH]c(CN(C)C(=O)[C@@]23CNC[C@@H]2CN(c2ncccn2)C3)n1 , please.
30%
